Data origin: BindingDB's records for doi:10.7270/Q2WW7G03

Catalogue of pEC50 values
Molecular target: 5-hydroxytryptamine receptor 1A (Homo sapiens, UniProt P08908)
Sequence (P08908 whole entry): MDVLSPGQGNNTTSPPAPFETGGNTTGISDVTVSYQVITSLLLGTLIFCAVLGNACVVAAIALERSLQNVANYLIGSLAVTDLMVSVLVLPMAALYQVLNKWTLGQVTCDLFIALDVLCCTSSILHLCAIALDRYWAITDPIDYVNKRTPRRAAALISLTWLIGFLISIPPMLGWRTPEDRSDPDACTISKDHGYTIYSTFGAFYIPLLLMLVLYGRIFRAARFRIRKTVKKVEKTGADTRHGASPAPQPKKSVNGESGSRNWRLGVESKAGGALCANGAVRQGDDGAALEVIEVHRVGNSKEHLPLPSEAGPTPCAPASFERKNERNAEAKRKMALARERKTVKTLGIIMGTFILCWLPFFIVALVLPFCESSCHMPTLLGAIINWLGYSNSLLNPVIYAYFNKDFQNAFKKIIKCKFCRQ
Assay: serotonin 1A receptor activation, dose response (AID 718)
Details: pH 7.4; 23 °C
pEC50: −log10 of the molar value.
QUANTITY: pEC50

INSERT INTO measurements (molecule, quantity, value_reported) VALUES
  ('CCOC(=O)C1C(C)=NC(=O)NC1c1ccc(OCC(=O)Nc2ccccc2)c(OC)c1 (stereo not drawn)', 'pEC50', 4.30),
  ('CN1CCN(C(N=O)c2nonc2N)CC1 (stereo not drawn)', 'pEC50', 4.30),
  ('Cn1cc(C(Cc2ccccc2)N=O)c2ccccc21 (stereo not drawn)', 'pEC50', 4.30);
